Target: MAPK14 (human)
Experiment: LPS-induced TNF-alpha Release Inhibition (Human Blood)
Would you mind telling me the reported IC50 of each entry?
Numbers only; they are read as nM.

Asked: Give reported IC50 value for COc1ccc(CNc2nccc(-c3[nH]c(C4CCNCC4)nc3-c3cccc(C(F)(F)F)c3)n2)cc1
Given back: 290

Asked: Please report IC50 for the following compound: Nc1nccc(-c2[nH]c(C3CCNCC3)nc2-c2cccc(C(F)(F)F)c2)n1
Given back: 190

Asked: Tell me measured IC50 for C[C@H](Nc1nccc(-c2nc(C3CCNCC3)n(C)c2-c2cccc(C(F)(F)F)c2)n1)c1ccccc1 please.
Given back: 24000

Asked: Note down IC50 recorded for Fc1ccc(-c2nc(C3CCNCC3)[nH]c2-c2ccncc2)cc1
Given back: 175

Asked: Assign IC50 to the following record: Fc1ccc(-c2nc(C3CCCCC3)[nH]c2-c2ccncc2)cc1
Given back: 34

Asked: Identify IC50 associated with the compound C[C@@H](Nc1nccc(-c2[nH]c(-c3ccccc3)nc2-c2cccc(C(F)(F)F)c2)n1)c1ccccc1
Given back: 0.4

Asked: Identify IC50 associated with the compound C[C@H](Nc1nccc(-c2[nH]c(-c3ccccc3)nc2-c2cccc(C(F)(F)F)c2)n1)c1ccccc1
Given back: 6

Asked: Output IC50 of Fc1ccc(-c2nc(C3CCCNC3)[nH]c2-c2ccncc2)cc1 (centres undefined)
Given back: 585

====

Can you tell me pIC50 for the items I'm about to list?
Target: MAPK14 (human) (UniProt Q16539)
Sequence (Q16539 whole entry, looked up): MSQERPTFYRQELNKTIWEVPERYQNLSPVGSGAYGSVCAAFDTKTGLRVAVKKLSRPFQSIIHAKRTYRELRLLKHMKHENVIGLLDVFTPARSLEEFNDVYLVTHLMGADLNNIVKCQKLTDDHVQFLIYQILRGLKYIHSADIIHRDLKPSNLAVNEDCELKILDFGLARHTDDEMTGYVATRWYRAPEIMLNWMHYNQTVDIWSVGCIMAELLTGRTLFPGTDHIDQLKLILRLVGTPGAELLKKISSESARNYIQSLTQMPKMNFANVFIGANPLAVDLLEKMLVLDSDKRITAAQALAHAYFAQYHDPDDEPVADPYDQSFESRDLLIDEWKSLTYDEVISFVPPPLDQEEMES
Assay: LPS-induced TNF-alpha Release Inhibition (Human Blood)
pIC50: −log10 of the molar value.

Asked: Send back MAPK14 (human) (UniProt Q16539) pIC50 of CNc1nccc(-c2[nH]c(-c3ccccc3)nc2-c2ccccc2)n1 only.
Given back: < 4.00

Asked: Provide measured pIC50 on MAPK14 (human) (UniProt Q16539) for Fc1ccc(-c2nc[nH]c2-c2ccncc2)cc1 please.
Given back: < 5.00

Asked: Recall the reported pIC50 of Nc1nccc(-c2[nH]c(-c3ccccc3)nc2-c2ccccc2)n1 when tested on MAPK14 (human) (UniProt Q16539).
Given back: < 4.00

Asked: Given COc1ccc(CNc2nccc(-c3[nH]c(-c4ccccc4)nc3-c3ccccc3)n2)cc1 , report its pIC50 on MAPK14 (human) (UniProt Q16539).
Given back: < 4.00

Asked: Using MAPK14 (human) (UniProt Q16539) as the test system, report measured pIC50 of c1ccc(-c2nc(-c3ccccc3)c(-c3ccncn3)[nH]2)cc1 .
Given back: < 4.00

Asked: Output reported pIC50 of the molecule FC(F)(F)c1cccc(-c2nc(-c3ccccc3)[nH]c2-c2ccncc2)c1 on MAPK14 (human) (UniProt Q16539).
Given back: < 4.00
